- System: carbapenemase producing K. pneumoniae
- assay info: MIC by broth micro-dilution (CLSI), carbapenemase producing K. pneumoniae
- Assay type: cell-based, Klebsiella pneumoniae
- settings: Klebsiella pneumoniae, ATCCBAA1705, KPC-2 K. pneumoniae ATCC BAA-1705; read-out: MIC
parameter measured: MIC (µg/mL)

C[C@@H](NC(=O)Cn1cnnn1)[C@H]1C(=O)N2C(C(=O)O)=C(S[C@@H]3CN[C@H](C(=O)N4C[C@H](N)C[C@H]4CO)C3)[C@H](C)[C@H]12 ... 1
CNCC(=O)N[C@H](C)[C@H]1C(=O)N2C(C(=O)O)=C(S[C@@H]3CN[C@H](C(=O)N4C[C@H](N)C[C@H]4c4ccccc4)C3)[C@H](C)[C@H]12 ... 16

(A) C[C@@H](NC(=O)Cn1cnnn1)[C@H]1C(=O)N2C(C(=O)O)=C(S[C@@H]3CN[C@H](C(=O)NC[C@@H]4CCNC4)C3)[C@H](C)[C@H]12
(B) C[C@@H](NC(=O)Cn1cnnn1)[C@H]1C(=O)N2C(C(=O)O)=C(S[C@@H]3CN[C@H](CN4CC[C@@H](N)C4)C3)[C@H](C)[C@H]12
(C) C[C@@H](NC(=O)C(F)F)[C@H]1C(=O)N2C(C(=O)O)=C(S[C@@H]3CN[C@H](C(=O)N4CC[C@H](NC(=O)CN)C4)C3)[C@H](C)[C@H]12
(D) C[C@@H](NC(=O)Cn1cnnn1)[C@H]1C(=O)N2C(C(=O)O)=C(S[C@@H]3CN[C@H](C(=O)N4CC(N)(CC#N)C4)C3)[C@H](C)[C@H]12
Arrange these compounds by their MIC, starting with the largest number. Quick reminder: the answer is the labels in the order asked.
C, D, A, B
(C: 4 µg/mL, D: 2 µg/mL, A: 1 µg/mL, B: 0.5 µg/mL)

(a) C[C@@H](NC(=O)Cn1cnnn1)[C@H]1C(=O)N2C(C(=O)O)=C(S[C@@H]3CN[C@H](C(=O)N4CCN(C[C@H](O)CN)CC4)C3)[C@H](C)[C@H]12
(b) CNCc1cn(CC(=O)N[C@H](C)[C@H]2C(=O)N3C(C(=O)O)=C(S[C@@H]4CN[C@H](C(=O)N(C)C)C4)[C@H](C)[C@H]23)nn1
(c) C[C@@H](NC(=O)[C@H]1CNCCN1)[C@H]1C(=O)N2C(C(=O)O)=C(S[C@@H]3CN[C@H](C(=O)N(C)C)C3)[C@H](C)[C@H]12
(d) C[C@@H](NS(=O)(=O)CCN)[C@H]1C(=O)N2C(C(=O)O)=C(S[C@@H]3CN[C@H](C(=O)N(C)C)C3)[C@H](C)[C@H]12
Arrange these compounds by their MIC, starting with the largest number. Quick reminder: the answer is the labels in the order asked.
d, c, b, a
(d: 16 µg/mL, c: 8 µg/mL, b: 4 µg/mL, a: 1 µg/mL)

(P) C[C@@H](NC(=O)C(F)F)[C@H]1C(=O)N2C(C(=O)O)=C(S[C@@H]3CN[C@H](C(=O)N4C[C@H](N)[C@@H](F)C4)C3)[C@H](C)[C@H]12
(Q) C[C@@H](NC(=O)Cn1nnnc1-c1cccs1)[C@H]1C(=O)N2C(C(=O)O)=C(S[C@@H]3CN[C@H](C(=O)N(C)C)C3)[C@H](C)[C@H]12
(R) C[C@@H](NC(=O)Cn1cnnn1)[C@H]1C(=O)N2C(C(=O)O)=C(S[C@@H]3CN[C@H](C(=O)N4C[C@H](CO)[C@@H](NC(=N)N)C4)C3)[C@H](C)[C@H]12
(S) C[C@@H](NC(=O)Cn1cnnn1)[C@H]1C(=O)N2C(C(=O)O)=C(S[C@@H]3CN[C@H](C(=O)N4C[C@@H]5NCCO[C@@H]5C4)C3)[C@H](C)[C@H]12
(T) CNCC(=O)NO[C@H]1CCN(C(=O)[C@@H]2C[C@H](SC3=C(C(=O)O)N4C(=O)[C@H]([C@@H](C)NC(=O)C(F)F)[C@H]4[C@H]3C)CN2)C1
Provide the items ranked by increasing MIC. Quick reminder: the answer is the labels in the order asked.
R, S, P, T, Q

Values from patent US11180504B2
